- assayProcedure: Permeability from apical to basolateral side of human Caco2 cells at 10 uM after 60 to 120 mins by HPLC analysis
- Type: ADME, cell-based
- measurementContext: Caco-2
measurementKind: Papp A→B at 10 µM (×10⁻⁶ cm/s)
Express the result in ×10⁻⁶ cm/s but write the number alone.

Reference set, count: 3
compound="CCOC(=O)[C@H](C)NP(=O)(OC[C@H]1O[C@@H](n2ccc3c(-c4cccs4)ncnc32)[C@H](O)[C@@H]1O)Oc1ccccc1 (some centres undefined)" measurementkind="Papp A→B at 10 µM" unittag="×10⁻⁶ cm/s" numericreadout=0.76
compound="COC(=O)[C@H](C)NP(=O)(OC[C@H]1O[C@@H](n2ccc3c(-c4cccs4)ncnc32)[C@H](O)[C@@H]1O)Oc1ccccc1 (some centres undefined)" measurementkind="Papp A→B at 10 µM" unittag="×10⁻⁶ cm/s" numericreadout=0.74
compound="C[C@H](NP(=O)(OC[C@H]1O[C@@H](n2ccc3c(-c4cccs4)ncnc32)[C@H](O)[C@@H]1O)Oc1ccccc1)C(=O)OCc1ccccc1 (some centres undefined)" measurementkind="Papp A→B at 10 µM" unittag="×10⁻⁶ cm/s" numericreadout=1.1

Please find the next compound below.
Request: # get_value(readout='Papp A→B at 10 µM', item= `OC[C@H]1O[C@@H](n2ccc3c(-c4cccs4)ncnc32)[C@H](O)[C@@H]1O` )
Response: 1.57
